System: MOLM1 and UCSD/AML1 (averaged)
assay_overview: cell viability relative to DMSO control (POC); higher = less growth inhibition
run_conditions: 1 µM; 72 h
Where a name gives a salt, the structure may show the parent alone. The campaign covered roughly 2,100 compounds. About 180 (8.6%) showed an effect of 50% or more. Only a selection was taken, and strong results are over-represented in it overall.
measured_property: cell viability (%)

{"compound": "O=Cc1ccccc1O[C@@H]1O[C@H](CO)[C@@H](O)[C@H](O)[C@H]1O", "measured_property": "cell viability", "reading_unit": "%", "endpoint_result": 102}
{"compound": "CNC(=O)c1cc(Oc2ccc(NC(=O)Nc3ccc(Cl)c(C(F)(F)F)c3)cc2)ccn1 [Sorafenib (Nexavar)]", "measured_property": "cell viability", "reading_unit": "%", "endpoint_result": 59.7}
{"compound": "Nc1ccccc1C(=O)CC(N)C(=O)O (centres undefined)", "measured_property": "cell viability", "reading_unit": "%", "endpoint_result": 98.1}
{"compound": "C[C@@H]1CC[C@@]2(OC1)O[C@H]1C[C@H]3[C@@H]4CC=C5C[C@@H](O)CC[C@]5(C)[C@H]4CC[C@]3(C)[C@H]1[C@@H]2C", "measured_property": "cell viability", "reading_unit": "%", "endpoint_result": 93.7}
{"compound": "Cc1cc(=O)oc2c(O)c(O)ccc12", "measured_property": "cell viability", "reading_unit": "%", "endpoint_result": 93.6}
{"compound": "Cc1csc(-c2nnc(Nc3ccc(Oc4ncccc4-c4ccnc(N)n4)cc3)c3ccccc23)c1", "measured_property": "cell viability", "reading_unit": "%", "endpoint_result": 51.5}
{"compound": "COC(=O)c1c(OC)cc2c(c1C)Oc1c(Cl)c(O)c(Cl)c(C)c1C(=O)O2", "measured_property": "cell viability", "reading_unit": "%", "endpoint_result": 107}
{"compound": "CC(C)C[C@H](NC(=O)[C@H](Cc1ccccc1)NC(=O)c1cnccn1)B(O)O [Bortezomib (Velcade)]", "measured_property": "cell viability", "reading_unit": "%", "endpoint_result": 0.861}
{"compound": "COc1ccc(-c2c(O)c3c(OC)c4c(cc3oc2=O)OC(C)(C)C=C4)cc1", "measured_property": "cell viability", "reading_unit": "%", "endpoint_result": 93.5}
{"compound": "O=C(Nc1cccnc1)N1CCC(Cc2cccc(Oc3ccc(C(F)(F)F)cn3)c2)CC1", "measured_property": "cell viability", "reading_unit": "%", "endpoint_result": 56.7}
{"compound": "CC(C)C[C@H](NC(=O)[C@@H](O)[C@H](N)Cc1ccccc1)C(=O)O [Ubenimex (Bestatin)]", "measured_property": "cell viability", "reading_unit": "%", "endpoint_result": 66.5}
{"compound": "CC1(O)CC2C(CC1O)C2(C)C (centres undefined)", "measured_property": "cell viability", "reading_unit": "%", "endpoint_result": 87.5}
{"compound": "CC1(C)CC2C1CCC1(C)OC2(C)CCC1O (centres undefined)", "measured_property": "cell viability", "reading_unit": "%", "endpoint_result": 91.4}
{"compound": "CCC(CCC(C)C1CCC2C3CCC4CC(O)CCC4(C)C3CCC12C)C(C)C (centres undefined)", "measured_property": "cell viability", "reading_unit": "%", "endpoint_result": 89.6}
{"compound": "C=C1C(=O)[C@]23[C@H](CC[C@@H]1[C@@H]2O)[C@]12CO[C@@]3(O)[C@H](O)[C@H]1C(C)(C)CC[C@@H]2O", "measured_property": "cell viability", "reading_unit": "%", "endpoint_result": 94.3}
{"compound": "OC[C@H]1O[C@@](CO)(O[C@H]2O[C@H](CO)[C@@H](O)[C@H](O)[C@H]2O)[C@@H](O[C@H]2O[C@H](CO)[C@@H](O)[C@H](O)[C@H]2O)[C@@H]1O", "measured_property": "cell viability", "reading_unit": "%", "endpoint_result": 103}
{"compound": "CC(C)Cn1cnc2c(N)nc3ccccc3c21 [Imiquimod]", "measured_property": "cell viability", "reading_unit": "%", "endpoint_result": 47.9}
{"compound": "COc1cc(O)cc(OC)c1OC", "measured_property": "cell viability", "reading_unit": "%", "endpoint_result": 95.9}
{"compound": "CC(C(=O)O)[C@H]1CCC2C3CC=C4C[C@@H](O)CC[C@]4(C)C3CC[C@@]21C (stereo partly drawn) [3beta-HYDROXY-23,24-BISNORCHOL-5-ENIC ACID]", "measured_property": "cell viability", "reading_unit": "%", "endpoint_result": 109}
{"compound": "Cn1cncc1[C@@](N)(c1ccc(Cl)cc1)c1ccc2c(c1)c(-c1cccc(Cl)c1)cc(=O)n2C [Tipifarnib (Zarnestra)]", "measured_property": "cell viability", "reading_unit": "%", "endpoint_result": 36.5}
{"compound": "CC(C)CCC[C@@H](C)[C@H]1CC[C@H]2[C@@H]3CC[C@H]4C[C@H](O)CC[C@]4(C)[C@H]3CC[C@]12C", "measured_property": "cell viability", "reading_unit": "%", "endpoint_result": 110}
{"compound": "Cc1ccc(-n2nc(C(C)(C)C)cc2NC(=O)Nc2ccc(OCCN3CCOCC3)c3ccccc23)cc1 [BIRB 796 (Doramapimod)]", "measured_property": "cell viability", "reading_unit": "%", "endpoint_result": 85.1}
{"compound": "CNC(=O)c1cc(Oc2ccc(NC(=O)Nc3cc(C(C)(C)C)nn3-c3ccc4ncccc4c3)c(F)c2)ccn1 [DCC-2036 (Rebastinib)]", "measured_property": "cell viability", "reading_unit": "%", "endpoint_result": 24.6}
{"compound": "O=C(/C=C/c1cccnc1)NCCCCC1CCN(C(=O)c2ccccc2)CC1", "measured_property": "cell viability", "reading_unit": "%", "endpoint_result": 12}
{"compound": "C[C@]12CCC(=O)C=C1C=C[C@@H]1[C@@H]2CC[C@@]2(C)[C@H]1CC[C@@]21CCC(=O)O1", "measured_property": "cell viability", "reading_unit": "%", "endpoint_result": 83.2}
{"compound": "CCc1ccc2c(O)c3c(cc2c1C(=O)OC)C(=O)c1c(O)ccc(O)c1C3=O", "measured_property": "cell viability", "reading_unit": "%", "endpoint_result": 102}
{"compound": "N[C@@H](C(=O)O)[C@@H](O)[C@H](O)[C@H](O)CO", "measured_property": "cell viability", "reading_unit": "%", "endpoint_result": 106}
{"compound": "CC(C)=CCC1=C(O)C(=O)c2ccccc2C1=O", "measured_property": "cell viability", "reading_unit": "%", "endpoint_result": 118}
{"compound": "Nc1c2ccccc2nc2ccccc12", "measured_property": "cell viability", "reading_unit": "%", "endpoint_result": 65}
{"compound": "O=C(Nc1cccc(Cl)c1)Nc1ncc(CCNc2ncnc3ccsc23)s1 [SNS-314 Mesylate]", "measured_property": "cell viability", "reading_unit": "%", "endpoint_result": 60}
{"compound": "COC(=O)C[C@H]1C(C)(C)C2(O)OC34CC2C(=O)[C@]1(C)C3CC[C@]1(C)C4=CC(=O)O[C@H]1c1ccoc1 (stereo partly drawn) [8beta-HYDROXYCARAPIN, 3,8-HEMIACETAL]", "measured_property": "cell viability", "reading_unit": "%", "endpoint_result": 89}
{"compound": "CC1(C)[C@@H](O)CC[C@]2(C)[C@H]3C(=O)C=C4[C@@H]5C[C@@](C)(C(=O)O)CC[C@]5(C)CC[C@@]4(C)[C@]3(C)CC[C@@H]12", "measured_property": "cell viability", "reading_unit": "%", "endpoint_result": 95.5}
{"compound": "Cc1ccc(C(=O)Nc2ccc(S(=O)(=O)O)c3cc(S(=O)(=O)O)cc(S(=O)(=O)O)c23)cc1NC(=O)c1cccc(NC(=O)Nc2cccc(C(=O)Nc3cc(C(=O)Nc4ccc(S(=O)(=O)O)c5cc(S(=O)(=O)O)cc(S(=O)(=O)O)c45)ccc3C)c2)c1", "measured_property": "cell viability", "reading_unit": "%", "endpoint_result": 111}
{"compound": "CS(=O)(=O)CCCCN=C=S", "measured_property": "cell viability", "reading_unit": "%", "endpoint_result": 84.4}

---

System: MOLM1 and UCSD/AML1 (averaged)
assay_overview: cell viability relative to DMSO control (POC); higher = less growth inhibition
run_conditions: 1 µM; 72 h
The campaign covered roughly 2,100 compounds. About 180 (8.6%) showed an effect of 50% or more. This excerpt belongs to a sample that is enriched for strong results.

{"molecule": "O=C(Nc1ccccc1)Nc1ccccc1", "reading_unit": "%", "cell viability": 87.7}
{"molecule": "OC[C@H]1O[C@@H](OCCc2ccc(O)cc2)[C@H](O)[C@@H](O)[C@@H]1O", "reading_unit": "%", "cell viability": 107}
{"molecule": "O=C(CCCCCCC(=O)Nc1ccccc1)NO [Vorinostat (SAHA)]", "reading_unit": "%", "cell viability": 22}
{"molecule": "COc1ccc(-c2coc3c(OC)c(OC)cc(O)c3c2=O)cc1", "reading_unit": "%", "cell viability": 101}
{"molecule": "O=C(Nc1ccccc1)c1ccccc1O", "reading_unit": "%", "cell viability": 97.1}
{"molecule": "FC(F)c1nc2ccccc2n1-c1nc(N2CCOCC2)nc(N2CCOCC2)n1", "reading_unit": "%", "cell viability": 26.8}
